Recorded growth inhibition for the following compounds
assayExplanation: NCI Yeast Anticancer Drug Screen. Data for the sgs1 mgt1 strain (AID 161);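 further: 0% = growth of cultures given vehicle only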
measurementSetup: S. cerevisiae sgs1 mgt1 strain, at 5.0 µM (retest, dose inferred, filed as 0.5), stronger effect = higher value
The panel holds about 79,000 compounds, 15% with a hit somewhere; the sample as a whole holds those more often.
Please respond with the number in % and leave the unit unwritten.

Here's what some known entries look like.
- compound: "COc1ccc(C2Cc3cc(OC)ccc3C2=O)cc1 (stereo unspecified)"
  quantityName: "growth inhibition"
  unitAbbreviation: "%"
  value: 17
- compound: "C/C(CCC(=O)O)=N/Nc1ccc(C(=O)O)cc1"
  quantityName: "growth inhibition"
  unitAbbreviation: "%"
  value: 1
- compound: "CC1CCCN(CC(O)CN2CCCc3ccccc32)C1 (stereo unspecified)"
  quantityName: "growth inhibition"
  unitAbbreviation: "%"
  value: 2

What growth inhibition value was documented for this compound, O=C(O)C(Cc1ccc(O)cc1)NC(=O)N(c1ccccc1)c1ccccc1 (stereo unspecified) ?
-205

What growth inhibition value was documented for this compound, O=C1NC(=Nc2ccccc2)C(=Nc2ccccc2)N1c1ccccc1 ?
-7

What growth inhibition value was documented for this compound, C#CCNC1=CC(=O)CCC1 ?
-3

---

assayExplanation: NCI Yeast Anticancer Drug Screen. Data for the mec2-1 strain (AID 157)
measurementSetup: S. cerevisiae mec2-1 strain, at 50.0 µM
Compounds without any hit were thinned out: in the full panel of roughly 79,000, 15% have a hit. Active and inactive are the calls of the source. No stated cut-off is given here; in the data, active means growth inhibition above about 70%; inactive means the rest.
Reply using exactly one outcome from active, inactive

Please review the following examples before continuing.
- compound: "C/C=C(\\C)[C@H](O)C(COCc1ccccc1)NS(=O)(=O)c1ccc(C)cc1 (stereo not given in full)"
  classAssignment: "active"
- compound: "CCOC(=O)c1cnc2ccc(C3CCCCC3)cc2c1Nc1ccc2c(c1)OCO2"
  classAssignment: "inactive"
- compound: "O=C1c2cccc3cc([N+](=O)[O-])cc(c23)C(=O)N1O"
  classAssignment: "active"

Dear colleague, could you share the recorded outcome for CN1C(=O)C(C2C(=O)N(C)C(=O)N(C)C2=O)C(=O)N(C)C1=O when you have a moment?
inactive

Dear colleague, could you share the recorded outcome for N#CC1=C(N)OC(c2ccccc2)=C(C#N)C1c1ccccc1 (stereo not given) when you have a moment?
active

---

assayExplanation: NCI Yeast Anticancer Drug Screen. Data for the cln2 rad14 strain (AID 165);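 further: 0% = growth equal to vehicle treated cultures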
measurementSetup: S. cerevisiae cln2 rad14 strain, at 50.0 µM
Compounds without any hit were thinned out: in the full panel of roughly 79,000, 15% have a hit. Calls of active or inactive are those of the source. Cut-off read from the data, not from the text of the source: active = growth inhibition above about 70%; inactive = the rest.
Reply using exactly one outcome from 1 = active, 0 = inactive

Please review the following examples before continuing.
- compound: "O=c1[nH]c2cc(Cl)ccc2nc1/C=C(\\O)c1ccc(N2CCN(c3ccc(/C(O)=C/c4nc5ccc(Cl)cc5[nH]c4=O)cc3)CC2)cc1"
  classAssignment: 1
- compound: "CCOC(=O)/C=C(\\NC1CC(OC2C[C@](O)(C(C)=O)Cc3c(O)c4c(c(O)c32)C(=O)c2c(OC)cccc2C4=O)OC(C)C1O)C(=O)OCC (some centres not stated)"
  classAssignment: 1
- compound: "O=C1C(=O)c2ccccc2C=C1C1CCCCC1"
  classAssignment: 1

Dear colleague, could you share the recorded outcome for CN(/N=C\c1ccc(Cl)cc1)C(c1ccc(Cl)cc1)N(C)/N=C/c1ccc(Cl)cc1 (configuration not stated) when you have a moment?
0

Dear colleague, could you share the recorded outcome for CC([NH-])C(=O)O.[Cu+2].[NH-]C(Cc1cnc[nH]1)C(=O)O (configuration not stated) when you have a moment?
1

Dear colleague, could you share the recorded outcome for C/C(=N\NC(=S)N1CCCC1)c1cnccn1 when you have a moment?
1

Dear colleague, could you share the recorded outcome for Clc1ccccc1/C=C/c1nccc2ccccc12 when you have a moment?
0

Dear colleague, could you share the recorded outcome for CC(=O)N(C1=C(Cl)C(=O)c2ccccc2C1=O)c1ccc([N+](=O)[O-])cc1 when you have a moment?
1

Dear colleague, could you share the recorded outcome for O=C(c1ccccc1)C1N=NCC1c1ccc([N+](=O)[O-])cc1 (configuration not stated) when you have a moment?
0

Dear colleague, could you share the recorded outcome for O=C1C(c2ccccc2)CS(=O)(=O)CC1c1ccccc1 (configuration not stated) when you have a moment?
0

Dear colleague, could you share the recorded outcome for S=C(Nc1ccccc1)[S][Sb]([S]C(=S)Nc1ccccc1)[c]1ccccc1 when you have a moment?
0

Dear colleague, could you share the recorded outcome for COc1ccc2nc3c([N+](=O)[O-])ccc(NCCCN(C)C)c3c(N)c2c1 when you have a moment?
0

Dear colleague, could you share the recorded outcome for Nc1nc(N)c(C(=O)SCc2ccccc2)nc1Cl when you have a moment?
0

Dear colleague, could you share the recorded outcome for O=C(O)CSc1ccc(N=C=S)cc1 when you have a moment?
0

Dear colleague, could you share the recorded outcome for O=C(c1ccc(Br)cc1)C1N=NCC1c1ccccc1 (configuration not stated) when you have a moment?
0

Dear colleague, could you share the recorded outcome for Cn1c2c(c3ccccc31)CCN(CCCN1CCN(c3ccccc3)CC1)C2=O when you have a moment?
1

Dear colleague, could you share the recorded outcome for CC1(C)CCCC12C=NCC2 (configuration not stated) when you have a moment?
0

Dear colleague, could you share the recorded outcome for CC(=O)N(c1ccccc1)C(C)C when you have a moment?
0

Dear colleague, could you share the recorded outcome for O=C1OCCCOC(=O)c2cc(ccc2O)OCC#CC#CCOc2ccc(O)c1c2 when you have a moment?
0

Dear colleague, could you share the recorded outcome for COC(=O)C1C(C(=O)OC)C2(OC(c3ccc(Cl)cc3)=CC2=O)C12OC(c1ccc(Cl)cc1)=CC2=O (configuration not stated) when you have a moment?
1

Dear colleague, could you share the recorded outcome for O=C1C=CC(=O)c2ccc(=O)ccc21 when you have a moment?
0

Dear colleague, could you share the recorded outcome for O=S1(=O)CC2C1C1(Cl)OC2(Cl)c2ccccc21 (configuration not stated) when you have a moment?
0

---

assayExplanation: NCI Yeast Anticancer Drug Screen. Data for the mlh1 rad18 strain (AID 175)
measurementSetup: S. cerevisiae mlh1 rad18 strain growth inhibition; at 50.0 µM; stronger effect = higher value
This is part of a sample that, as a whole, favours compounds with a hit. Of some 79,000 tested, about 15% had one in any assay.
Label scheme, based on growth inhibition: Low: < 60%; Mid: ≥ 60% and < 90%; High: ≥ 90%

Where would CSc1ccc(NC(=S)SC(C)C)cc1Cl land among the classes by reported growth inhibition?
High

Where would Oc1ccc(Br)cc1-c1nc2cc(Cl)c(Cl)cc2nc1-c1cc(Br)ccc1O land among the classes by reported growth inhibition?
Mid

Where would CCN(CC)CCCC(C)Nc1c2ccccc2nc2c(C)cc(Br)cc12 (configuration not stated) land among the classes by reported growth inhibition?
Low

Where would O=C(Nc1cccc2ccccc12)OCCCCCCl land among the classes by reported growth inhibition?
High

Where would COC(=O)CSc1n[nH]c(-c2ccc(O)c([N+](=O)[O-])c2)n1 land among the classes by reported growth inhibition?
Low

Where would N#Cc1cc2c(cc1Cl)Sc1nccn1S2(=O)=O land among the classes by reported growth inhibition?
Mid

Where would O=C(CC(=O)c1ccc(O)cc1)c1ccccc1 land among the classes by reported growth inhibition?
Low

---

assayExplanation: NCI Yeast Anticancer Drug Screen. Data for the mec2-1 strain (AID 157)
measurementSetup: S. cerevisiae mec2-1 strain, at 5.0 µM (retest, dose inferred, filed as 0.5)
The panel holds about 79,000 compounds, 15% with a hit somewhere; the sample as a whole holds those more often. Calls of active or inactive are those of the source. Rule as the data show it: active = growth inhibition above about 70%; inactive = the rest.
Reply using exactly one outcome from active, inactive

Please review the following examples before continuing.
- molecule: "CC(C)C(O)C(C)C"
  classAssignment: "inactive"
- molecule: "COc1ccc(/C(O)=C/c2nc3ccc([N+](=O)[O-])cc3[nH]c2=O)cc1"
  classAssignment: "inactive"
- molecule: "CCOC(=O)c1c(Br)c(-c2ccc(Br)cc2)c(Br)n1C"
  classAssignment: "inactive"

Dear colleague, could you share the recorded outcome for COc1cc(CNC(=O)CCCCCCCC/C=C/Br)ccc1O when you have a moment?
inactive

Dear colleague, could you share the recorded outcome for CCCC(=O)OCc1cc(=O)n(C)c2c3c4c(cc12)c(C)cc(=O)n4CO3 when you have a moment?
inactive

Dear colleague, could you share the recorded outcome for Cc1cc(N/N=C/c2ccc([N+](=O)[O-])o2)c2cc3c(cc2n1)OCO3 when you have a moment?
inactive

Dear colleague, could you share the recorded outcome for CCC(=O)C(C(=O)CC)c1c(OC(=O)c2ccccc2)ccc(O)c1C(=O)OC when you have a moment?
inactive

Dear colleague, could you share the recorded outcome for CCC(=S)N(C)O when you have a moment?
active

Dear colleague, could you share the recorded outcome for Oc1ccccc1N=CC1CCCCC1 when you have a moment?
inactive

Dear colleague, could you share the recorded outcome for CC(C(=O)N1C(=O)N(C(=O)C(C)C(O)c2ccccc2)C(c2ccccc2)C1c1ccccc1)C(O)c1ccccc1 (stereo not drawn) when you have a moment?
inactive

---

Recorded growth inhibition for the following compounds
assayExplanation: NCI Yeast Anticancer Drug Screen. Data for the mlh1 rad18 strain (AID 175)
measurementSetup: S. cerevisiae mlh1 rad18 strain growth inhibition; at 50.0 µM (retest, dose inferred, filed as 5.0); stronger effect = higher value
Compounds without any hit were thinned out: in the full panel of roughly 79,000, 15% have a hit.
Please respond with the number in % and leave the unit unwritten.

- compound: "Cc1[nH]nc(C(=O)OC(C)C)c1N=NN(C)C"
  value: 95

What growth inhibition value was documented for this compound, O=C1c2ccccc2C(=O)N1CCn1ccc(NC(c2ccccc2)(c2ccccc2)c2ccccc2)nc1=O ?
44

What growth inhibition value was documented for this compound, COc1ccc(C2COc3cc(OC(C)=O)c(OC(C)=O)cc3C2)cc1 (centres undefined) ?
94
